Sequence of the target: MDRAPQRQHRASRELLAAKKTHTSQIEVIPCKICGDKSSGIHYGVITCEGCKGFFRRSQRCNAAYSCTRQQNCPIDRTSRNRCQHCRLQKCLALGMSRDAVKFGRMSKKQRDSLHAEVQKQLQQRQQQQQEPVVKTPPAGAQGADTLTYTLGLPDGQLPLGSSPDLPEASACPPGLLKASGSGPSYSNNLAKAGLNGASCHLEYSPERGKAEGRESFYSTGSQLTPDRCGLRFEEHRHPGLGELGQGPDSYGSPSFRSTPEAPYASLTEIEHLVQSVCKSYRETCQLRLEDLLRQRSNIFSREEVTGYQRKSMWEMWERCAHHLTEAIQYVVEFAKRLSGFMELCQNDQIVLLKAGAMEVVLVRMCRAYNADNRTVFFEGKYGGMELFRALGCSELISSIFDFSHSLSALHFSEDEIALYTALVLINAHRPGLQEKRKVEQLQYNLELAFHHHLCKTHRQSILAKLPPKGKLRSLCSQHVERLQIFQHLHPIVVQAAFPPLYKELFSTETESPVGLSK
quantity-measured: pIC50
Note on units: pIC50 is unitless, being -log10 of a concentration expressed in mol/L.

Some solved entries appear below for comparison.
molecule: CNS(=O)(=O)c1ccc(CC(=O)Nc2cc(-c3cc(C#N)cnc3OC)cs2)cc1
pIC50: 7.15

molecule: CCS(=O)(=O)c1ccc(CC(=O)Nc2cc(-c3cccnc3OC)cs2)cc1
pIC50: 6.39

molecule: CCS(=O)(=O)c1ccc(CC(=O)Nc2nc(-c3cccc(Cl)c3)c(C(=O)c3ccccc3Cl)s2)cc1
pIC50: 8.05

molecule: CCS(=O)(=O)c1ccc(CC(=O)Nc2cc(-c3cccc(Cl)c3)c(C(=O)c3ccccc3Cl)s2)cc1
pIC50: 8.70

**Q:** Which measured pIC50 value corresponds to CCS(=O)(=O)c1ccc([C@@H](NC(C)=O)C(=O)Nc2cc(-c3cccnc3OCc3ccc(OC(F)(F)F)cc3)cs2)cc1 ?
**A:** 8.52

**Q:** How about CCS(=O)(=O)c1ccc(CC(=O)Nc2cc(-c3cccnc3OCCc3ccccc3)cs2)cc1 ?
**A:** 7.54

**Q:** What do you get for CCS(=O)(=O)c1ccc(CC(=O)Nc2cc(-c3cc(C#N)cnc3OCC(F)(F)F)cs2)cc1 ?
**A:** 8.70

----------
- method-description: Clearance in Han Wistar rat at 0.5 mg/kg, iv or 1 mg/kg, po
- Type: ADME, organism-based
- conditions-used: in vivo
quantity-measured: clearance (mL/min/kg)
Supply the numeric figure in mL/min/kg, leaving out any unit text.

**Q:** # query: clearance of entry CCS(=O)(=O)c1ccc(CC(=O)Nc2cc(-c3cc(C#N)cc(F)c3OC)cs2)cc1
**A:** 5.5

**Q:** Okay, and CCS(=O)(=O)c1ccc(CC(=O)Nc2cc(-c3cccnc3OCc3ccc(OC(F)(F)F)cc3)cs2)cc1 ?
**A:** 46.5

**Q:** Cool, now CCS(=O)(=O)c1ccc(CC(=O)Nc2cc(-c3cccnc3Oc3ccc(OC(F)(F)F)cc3)cs2)cc1
**A:** 24

**Q:** Another: CCS(=O)(=O)c1ccc([C@@H](NC(C)=O)C(=O)Nc2cc(-c3cccnc3OCc3ccc(OC(F)(F)F)cc3)cs2)cc1
**A:** 12

**Q:** Same lookup for CCS(=O)(=O)c1ccc(CC(=O)Nc2cc(-c3cc(C#N)cnc3OCC(F)(F)F)cs2)cc1 , please.
**A:** 0.8

----------
- method-description: Intrinsic clearance in human hepatocytes assessed per million cells
- Assay type: ADME, cell-based, Hepatocyte
- conditions-used: read-out: CLH
Threshold 6 µL/min/1e6 cells. hepatocyte CLint below it: yes (1). hepatocyte CLint at it or above: no (0).

Below, 3 molecules whose answers are already recorded.
smiles: CCS(=O)(=O)c1ccc(CC(=O)Nc2cc(-c3cccnc3OCc3ccc(OC(F)(F)F)cc3)cs2)cc1
assigned-category: no (0)
//
smiles: CCS(=O)(=O)c1ccc([C@@H](NC(C)=O)C(=O)Nc2cc(-c3cccnc3OCc3ccc(OC(F)(F)F)cc3)cs2)cc1
assigned-category: no (0)
//
smiles: CCS(=O)(=O)c1ccc(CC(=O)Nc2cc(-c3cc(C#N)cc(F)c3OC)cs2)cc1
assigned-category: yes (1)

Field: next molecule
**Q:** Does the reported hepatocyte CLint of CCS(=O)(=O)c1ccc(CC(=O)Nc2cc(-c3cccnc3Oc3ccc(OC(F)(F)F)cc3)cs2)cc1 stay below 6 µL/min/1e6 cells?
**A:** no (0)

----------
Here the recorded selectivity ratio is given for each entry.
- method-description: Selectivity index, ratio of cytotoxicity in human Th17 cells to IC50 for inverse agonist activity at RORgammat in human TH17 cells assessed as inhibition of IL17 release
- Assay type: toxicity, cell-based
No unit in the answer, please; the number alone is enough.

Record excerpt, results attached:
smiles: CCS(=O)(=O)c1ccc(CC(=O)Nc2cc(-c3cccnc3OCc3ccc(C(=O)OC)cc3)cs2)cc1
quantity-measured: selectivity ratio
measured-value: 100
//
smiles: CCS(=O)(=O)c1ccc(CC(=O)Nc2cc(-c3cccnc3OC/C=C/c3ccccc3)cs2)cc1
quantity-measured: selectivity ratio
measured-value: 100

Please examine the following record next.
**Q:** Fill blank: measured selectivity ratio of the compound CCS(=O)(=O)c1ccc(CC(=O)Nc2cc(-c3cccnc3OCc3ccc(OC(F)(F)F)cc3)cs2)cc1 is ____.
**A:** 100

----------
Measured pIC50 by item
Target protein (sequence): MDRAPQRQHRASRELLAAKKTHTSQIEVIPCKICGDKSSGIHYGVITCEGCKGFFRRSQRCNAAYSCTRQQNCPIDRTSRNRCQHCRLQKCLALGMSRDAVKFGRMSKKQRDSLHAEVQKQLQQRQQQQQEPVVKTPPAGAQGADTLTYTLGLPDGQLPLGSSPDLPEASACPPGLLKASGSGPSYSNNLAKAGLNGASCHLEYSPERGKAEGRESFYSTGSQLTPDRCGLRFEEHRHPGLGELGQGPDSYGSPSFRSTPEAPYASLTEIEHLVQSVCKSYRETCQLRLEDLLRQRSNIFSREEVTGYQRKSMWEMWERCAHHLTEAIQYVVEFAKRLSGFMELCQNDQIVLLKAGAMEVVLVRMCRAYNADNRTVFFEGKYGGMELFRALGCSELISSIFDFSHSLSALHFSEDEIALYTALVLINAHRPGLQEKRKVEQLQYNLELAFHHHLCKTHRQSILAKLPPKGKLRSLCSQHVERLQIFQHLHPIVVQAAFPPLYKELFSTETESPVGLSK
The meaning of pIC50 here: minus log10 of the concentration in molar units.

**Q:** // query pIC50 value for entry CCS(=O)(=O)c1ccc(CC(=O)Nc2cc(-c3ccc(C#N)cc3Cl)cs2)cc1
**A:** 6.11

**Q:** Further, for CCS(=O)(=O)c1ccc(CC(=O)Nc2cc(-c3cc(C#N)cnc3OCC(F)(F)F)cs2)cc1 ?
**A:** 7.52

----------
- method-description: Permeability from basolateral to apical side in human Caco2 cells
- Assay type: ADME, cell-based
- conditions-used: Caco-2, read-out: permeability
// classify: if (Papp B→A < 10 ×10⁻⁶ cm/s) criterion met else criterion not met

Here are 2 compounds together with their reported answers.
compound: CCS(=O)(=O)c1ccc(CC(=O)Nc2cc(-c3cccc(Cl)c3)c(C(=O)c3ccccc3Cl)s2)cc1
assigned-category: criterion met
--
compound: CCS(=O)(=O)c1ccc([C@@H](NC(C)=O)C(=O)Nc2cc(-c3cccnc3OCc3ccc(OC(F)(F)F)cc3)cs2)cc1
assigned-category: criterion not met

**Q:** Please let me know if CCS(=O)(=O)c1ccc(CC(=O)Nc2cc(-c3cc(C#N)cc(F)c3OC)cs2)cc1 shows Papp B→A below 10 ×10⁻⁶ cm/s.
**A:** criterion met

**Q:** Record: CNS(=O)(=O)c1ccc(CC(=O)Nc2cc(-c3cc(C#N)cnc3OC)cs2)cc1
**A:** criterion not met

**Q:** Do the same for CCS(=O)(=O)c1ccc(CC(=O)Nc2cc(-c3cc(C#N)ccc3OC)cs2)cc1 please
**A:** criterion not met

**Q:** Would you kindly repeat that for CCS(=O)(=O)c1ccc(C(NC(C)=O)C(=O)Nc2cc(-c3cc(C#N)cc(F)c3OC)cs2)cc1 (stereo unspecified) ?
**A:** criterion not met

----------
- method-description: Distribution coefficient between 1-octanol and aqueous phosphate buffer, logD of the compound in pH 7.4 buffer
- Format: physicochemical
- conditions-used: 1-octanol/aqueous phosphate buffer
quantity-measured: logD
Lab note: write the figure by itself, no unit.

Known logD results, listed for orientation:
compound: CCS(=O)(=O)c1ccc([C@H](NC(C)=O)C(=O)Nc2cc(-c3cccnc3OCc3ccc(OC(F)(F)F)cc3)cs2)cc1
measured-value: 4.7
--
compound: CCS(=O)(=O)c1ccc(CC(=O)Nc2cc(-c3cc(C#N)cnc3OC)cs2)cc1
measured-value: 3.5
--
compound: CCS(=O)(=O)c1ccc(C(NC(C)=O)C(=O)Nc2cc(-c3cccnc3Oc3ccc(C#N)cc3)cs2)cc1 (centres undefined)
measured-value: 3.4
--
compound: CC[S+]([O-])c1ccc(CC(=O)Nc2cc(-c3cc(C#N)cnc3OC)cs2)cc1 (centres undefined)
measured-value: 3.4

Next item in the queue.
**Q:** Find the recorded logD belonging to CCS(=O)(=O)c1ccc(CC(=O)Nc2cc(-c3cc(C#N)cc(F)c3OC)cs2)cc1 and report it.
**A:** 3.9

Origin of the recorded values: ChEMBL document CHEMBL4145688
